- studyTarget: mouse SSTR5 (Mus musculus)
- Sequence (O08858 whole entry): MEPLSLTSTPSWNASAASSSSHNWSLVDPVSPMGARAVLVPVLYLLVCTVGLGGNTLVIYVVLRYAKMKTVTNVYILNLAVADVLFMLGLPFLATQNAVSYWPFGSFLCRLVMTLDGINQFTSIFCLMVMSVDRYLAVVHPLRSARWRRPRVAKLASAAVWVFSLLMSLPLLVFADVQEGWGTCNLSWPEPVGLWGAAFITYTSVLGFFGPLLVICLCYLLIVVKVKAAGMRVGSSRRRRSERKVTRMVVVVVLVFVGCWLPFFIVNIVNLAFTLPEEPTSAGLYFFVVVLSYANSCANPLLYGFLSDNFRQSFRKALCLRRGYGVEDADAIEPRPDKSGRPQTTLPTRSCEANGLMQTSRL
measuredEndpoint: Ki (nM)
Numbers only, in nM.

Q: Specify Ki for CCOc1cc(CN2CCC3(CC2)CN(c2ccc(C(=O)O)cc2)C(=O)N3)c(C2CC2)cc1C [Example 2, hydrate] , system mouse SSTR5 (Mus musculus).
A: 4.87

----------
- studyTarget: hSSTR5 (Homo sapiens, UniProt P35346)
- Sequence (P35346 whole entry): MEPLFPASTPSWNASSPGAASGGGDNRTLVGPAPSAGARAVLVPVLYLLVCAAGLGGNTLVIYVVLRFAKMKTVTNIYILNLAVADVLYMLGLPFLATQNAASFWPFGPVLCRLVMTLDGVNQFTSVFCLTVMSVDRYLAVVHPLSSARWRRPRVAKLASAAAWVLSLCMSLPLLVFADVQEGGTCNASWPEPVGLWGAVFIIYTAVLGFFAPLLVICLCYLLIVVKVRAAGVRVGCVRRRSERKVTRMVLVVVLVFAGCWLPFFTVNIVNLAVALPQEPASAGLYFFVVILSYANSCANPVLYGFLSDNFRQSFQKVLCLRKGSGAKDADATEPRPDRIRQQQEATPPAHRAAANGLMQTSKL
- methodSummary: β-Arrestin whole cell functional assay (PathHunter CHO-K1 hSSTR5 β-arrestin cells)
- Type: cell-based
- Design: host or cells: CHO-K1 (PathHunter engineered line)
- reportedConditions: EC80 agonist 37.5 nM SST14
measuredEndpoint: pIC50
Give bare numbers, as −log10 of the molar value.

Q: Answer with the recorded pIC50 for the compound listed here: CCOc1cc(CN2CCC3(CC2)CN(c2ccc(C(=O)O)cc2)C(=O)N3)c(C2CC2)cc1C [Example 2, hydrate]
A: 9.09
